Species on record: Homo sapiens
Run description: Liver toxicity in human assessed as induction of drug-induced liver injury by measuring verified drug-induced liver injury concern status
Property measured: DILI_Concern

[
  {
    "Compound": "CCCCCCCN(CC)CCCC(O)c1ccc(NS(C)(=O)=O)cc1 (centres undefined) [IBUTILIDE]",
    "DILI_Concern": "No-Dili-Concern"
  },
  {
    "Compound": "CN(C)C(=O)Oc1ccc[n+](C)c1 [PYRIDOSTIGMINE]",
    "DILI_Concern": "No-Dili-Concern"
  },
  {
    "Compound": "CC(=O)[C@H]1CC[C@H]2[C@@H]3CCC4=CC(=O)CC[C@]4(C)[C@H]3CC[C@]12C [PROGESTERONE]",
    "DILI_Concern": "Less-Dili-Concern"
  },
  {
    "Compound": "COc1cccc2c1C(=O)c1c(O)c3c(c(O)c1C2=O)C[C@@](O)(C(=O)CO)C[C@@H]3O[C@H]1C[C@H](N)[C@H](O)[C@H](C)O1 [DOXORUBICIN]",
    "DILI_Concern": "Less-Dili-Concern"
  },
  {
    "Compound": "Cc1nc2n(c(=O)c1CCN1CCC(c3noc4cc(F)ccc34)CC1)CCCC2O (centres undefined) [PALIPERIDONE]",
    "DILI_Concern": "No-Dili-Concern"
  },
  {
    "Compound": "O=C1CCC(N2C(=O)c3ccccc3C2=O)C(=O)N1 (centres undefined) [THALIDOMIDE]",
    "DILI_Concern": "Less-Dili-Concern"
  },
  {
    "Compound": "CN(C)CC[C@@H](c1ccc(Cl)cc1)c1ccccn1 [DEXCHLORPHENIRAMINE]",
    "DILI_Concern": "No-Dili-Concern"
  },
  {
    "Compound": "NC(=O)C[S+]([O-])C(c1ccccc1)c1ccccc1 (centres undefined) [MODAFINIL]",
    "DILI_Concern": "Less-Dili-Concern"
  },
  {
    "Compound": "CC(C)NCC(O)COc1ccc(COCCOC(C)C)cc1 (centres undefined) [BISOPROLOL]",
    "DILI_Concern": "Ambiguous-Dili-Concern"
  },
  {
    "Compound": "N[C@@H](Cc1cc(I)c(Oc2cc(I)c(O)c(I)c2)c(I)c1)C(=O)O [LEVOTHYROXINE]",
    "DILI_Concern": "Less-Dili-Concern"
  }
]

Hi, could you look up DILI_Concern for each item in my list?
1. CC(C)C[C@H](NC(=O)[C@H](Cc1c[nH]c2ccccc12)NC(=O)[C@H](Cc1ccc(O)cc1)NC(=O)[C@H](CO)NC(=O)[C@H](Cc1c[nH]c2ccccc12)NC(=O)[C@H](Cc1c[nH]cn1)NC(=O)[C@@H]1CCC(=O)N1)C(=O)N[C@@H](CCCNC(=N)N)C(=O)N1CCC[C@H]1C(=O)NCC(N)=O.O=C(O)c1cc2ccccc2c(Cc2c(O)c(C(=O)O)cc3ccccc23)c1O
2. C[C@]12C=CC(=O)C=C1CC[C@@H]1[C@@H]2C(=O)C[C@@]2(C)[C@H]1CC[C@]2(O)C(=O)CO [PREDNISONE]
3. NC(=O)NO [HYDROXYUREA]
4. Nc1nc(=O)[nH]cc1F [FLUCYTOSINE]
5. CC1(C)C(/C=C/C=C/C=C/C=C2/N(CCCCS(=O)(=O)[O-])c3ccc4ccccc4c3C2(C)C)=[N+](CCCCS(=O)(=O)[O-])c2ccc3ccccc3c21.[Na+] [INDOCYANINE GREEN]
6. COC(c1ccccc1)(c1ccccc1)[C@H](Oc1nc(C)cc(C)n1)C(=O)O [AMBRISENTAN]

Out:
1. Less-Dili-Concern
2. Less-Dili-Concern
3. Most-Dili-Concern
4. Ambiguous-Dili-Concern
5. No-Dili-Concern
6. Ambiguous-Dili-Concern

Hi, could you look up DILI_Concern for each item in my list?
1. Cc1c(OCC(F)(F)F)ccnc1C[S@@+]([O-])c1nc2ccccc2[nH]1 [DEXLANSOPRAZOLE]
2. Nc1nc(Cl)nc2c1ncn2[C@H]1C[C@H](O)[C@@H](CO)O1 [CLADRIBINE]
3. Nc1c(CC(=O)O)cccc1C(=O)c1ccc(Br)cc1 [BROMFENAC]

Out:
Less-Dili-Concern
Ambiguous-Dili-Concern
Most-Dili-Concern
